# Assayed system: NS2B(H)-NS3pro (DENV-2 NS2B-NS3 protease) (Dengue virus 2 Thailand/NGS-C/1944, UniProt P14340)
# Sequence (P14340 1394-1433 limits assumed): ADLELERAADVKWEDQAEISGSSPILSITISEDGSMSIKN
# Sequence (P14340 1476-1660 limits assumed): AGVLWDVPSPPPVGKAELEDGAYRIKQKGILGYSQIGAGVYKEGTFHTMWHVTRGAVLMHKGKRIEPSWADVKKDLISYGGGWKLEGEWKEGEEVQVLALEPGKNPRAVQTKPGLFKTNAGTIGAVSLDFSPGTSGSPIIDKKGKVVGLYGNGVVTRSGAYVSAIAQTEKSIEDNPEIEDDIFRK
# Settings: read-out: IC50 (C7.5-HEPES AMC); AMC substrate, HEPES pH 7.5, CHAPS; inhibitor
Measured endpoint: pIC50
// scale note: pIC50 = -log10(conc_M); give the bare number

Worked set:
Compound	Reported value
NC(=O)c1cccc(NC(=O)[C@@H](NC(=O)Cc2ccccc2Nc2c(Cl)cccc2Cl)c2ccc(OCc3ccccc3)cc2)c1 [compound 9, 9]	5.00
NC(=O)c1cccc(NC(=O)[C@@H](NC(=O)Cc2ccc(Oc3ccccc3)cc2)c2ccc(OCc3ccccc3)cc2)c1 [compound 11, 11]	4.85

Attention now turns to another entry.
**Query** Would you kindly share the measured pIC50 for NC(=O)c1cccc(NC(=O)[C@@H](NC(=O)c2ccc(-c3ccccc3)o2)c2ccc(OCc3ccccc3)cc2)c1 [compound 5, 5] ?
**Result** 5.03

----------
# Protocol text: in vitro
# Set-up: species or system DENV2proHeLa (HeLa)
# Settings: human, denv2prohela cells
Measured endpoint: CC50

Worked set:
Compound	Reported value
NC(=O)c1cccc(NC(=O)C(Cc2ccc(OCc3ccc4ccccc4c3)cc2)NC(=O)c2ccc(Oc3ccccc3)cc2)c1 (stereo not shown)	16 µM
NC(=O)c1cccc(NC(=O)C(Cc2ccc3ccccc3c2)NC(=O)c2ccc(Oc3ccccc3)cc2)c1 (stereo not shown)	> 50 µM
NC(=O)c1cccc(NC(=O)C(CCC(=O)Nc2ccccc2)NC(=O)c2ccc(Oc3ccccc3)cc2)c1 (stereo not shown)	> 50 µM
NC(=O)c1cccc(NC(=O)C(CCc2ccccc2)NC(=O)c2ccc(Oc3ccccc3)cc2)c1 (stereo not shown)	> 50 µM
CC(C)CC(NC(=O)c1ccc(Oc2ccccc2)cc1)C(=O)Nc1cccc(C(N)=O)c1 (stereo not shown)	≥ 50 µM
CC(C(=O)NC(Cc1c[nH]c2ccccc12)C(=O)Nc1cccc(C(N)=O)c1)c1ccc2c(c1)[nH]c1ccc(Cl)cc12 (stereo not shown)	16 µM

**Query** Would you kindly share the measured CC50 for NC(=O)c1cccc(NC(=O)C(Cc2c[nH]c3ccccc23)NC(=O)c2ccc(Oc3ccccc3)cc2)c1 (stereo not shown) ?
**Result** > 50 µM

----------
# inhibition at 25 µM values compiled below
# System: DENV-2
# Protocol text: microbe, parasite or virus in culture
# Settings: Dengue virus, DENV2, Vero, 48 h, read-out: % inhibition
Give the value in % but do not write % after it.

Worked set:
Compound	Measured endpoint	Reported value
COc1ccc(/C=C/C(=O)C(=O)NC(C)(C)C)cc1OC [GG-80-1]	inhibition at 25 µM	97
CCCCC(CC)C(=O)N[C@H](C(=O)Nc1cccc(C(N)=O)c1)c1ccc(OCc2ccccc2)cc1 (stereo partly drawn) [compound 20, 20]	inhibition at 25 µM	90
NC(=O)c1cccc(NC(=O)[C@@H](NC(=O)c2ccc(-c3ccccc3)o2)c2ccc(OCc3ccccc3)cc2)c1 [compound 5, 5]	inhibition at 25 µM	96
COc1cc(CC(=O)N[C@H](C(=O)Nc2cccc(C(N)=O)c2)c2ccc(OCc3ccccc3)cc2)cc(OC)c1OC [compound 31]	inhibition at 25 µM	11

**Query** Would you kindly share the measured inhibition at 25 µM for CC(C(=O)N[C@H](C(=O)Nc1cccc(C(N)=O)c1)c1ccc(OCc2ccccc2)cc1)c1cccc(Oc2ccccc2)c1 (stereo partly drawn) [compound 4, 4] ?
**Result** 85

**Query** Same thing, different compound: CCCCCC(=O)N[C@H](C(=O)NCc1ccc(NC(=N)N)cc1)c1ccc(OCc2ccccc2)cc1 [NK-189]
**Result** 21

**Query** Same thing, different compound: CC(CC(=O)N[C@H](C(=O)Nc1cccc(C(N)=O)c1)c1ccc(OCc2ccccc2)cc1)CC(C)(C)C (stereo partly drawn) [compound 16]
**Result** 98

**Query** Same thing, different compound: CC(C)(C)NC(=O)C(=O)/C=C/c1c[nH]c2ccccc12 [GG-92]
**Result** 40
